target: CYP2D6 (Homo sapiens); assay: Cytochrome inhibition, fluorometric microtiter plate assay; type: in vitro ADME; settings: CYP2D6 cytochrome inhibition (IC50, concentrations in μM for 50% inhibition), human recombinant CYP2D6, substrate AMMC; compounds of the invention
Sequence (P10635 whole entry): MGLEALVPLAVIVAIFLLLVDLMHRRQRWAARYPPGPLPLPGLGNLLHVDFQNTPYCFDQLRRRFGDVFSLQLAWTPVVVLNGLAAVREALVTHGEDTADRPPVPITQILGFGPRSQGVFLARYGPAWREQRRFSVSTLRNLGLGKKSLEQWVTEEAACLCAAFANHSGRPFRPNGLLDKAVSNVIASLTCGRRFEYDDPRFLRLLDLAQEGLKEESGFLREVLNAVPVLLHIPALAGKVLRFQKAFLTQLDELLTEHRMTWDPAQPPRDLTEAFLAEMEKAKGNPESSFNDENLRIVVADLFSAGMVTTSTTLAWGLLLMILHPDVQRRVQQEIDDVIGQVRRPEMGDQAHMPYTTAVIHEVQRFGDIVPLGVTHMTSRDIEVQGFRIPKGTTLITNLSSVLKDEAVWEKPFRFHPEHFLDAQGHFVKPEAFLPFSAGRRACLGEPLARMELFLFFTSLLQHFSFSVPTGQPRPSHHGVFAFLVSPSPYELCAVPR
A collection of compounds and their measured IC50

- compound: "C[C@H]1CCCN(CCCOc2ccc(-c3ccncc3)cc2)C1 [Example 39]"
  recorded-measurement: "6 µM"
- compound: "C[C@H]1CCCN(CCCOc2ccc(-c3cc[n+]([O-])cc3)cc2)C1 [Example 51]"
  recorded-measurement: "> 100 µM"
- compound: "C[C@@H]1C[C@@H](C)CN(CCCOc2ccc(Oc3ccccc3)cc2)C1 (relative stereo) [Example 14]"
  recorded-measurement: "> 10 µM"

Now for another entry.
Ask: GET /values?readout=IC50&item= C(#Cc1ccc(OCCCN2CCCCC2)cc1)CCN1CCCCC1.O=C(O)C(=O)O.O=C(O)C(=O)O [Example 43]
Reply: > 1 µM
